TEST_SYSTEM: Cl− channel
EXPERIMENTAL_PROTOCOL: Radioligand binding selectivity, Cl− channel
Parameter: Ki. Scope: all listed entries.

| SMILES_ENTRY | TEST_SYSTEM | Ki |
| --- | --- | --- |
| Cc1nn(-c2ncccc2CO)cc1CN1CCC2(CC1)OCC(F)(F)c1cc(Cl)sc12 | Cl− channel | > 500 nM |
| O=C(O)C(O)C(O)C(=O)O.OCc1nn(-c2ncccc2F)cc1CN1CCC2(CC1)OCC(F)(F)c1cc(Cl)sc12 | Cl− channel | > 500 nM |

* * *

TEST_SYSTEM: Kappa Opioid (Homo sapiens, UniProt P41145)
Sequence (P41145 whole entry): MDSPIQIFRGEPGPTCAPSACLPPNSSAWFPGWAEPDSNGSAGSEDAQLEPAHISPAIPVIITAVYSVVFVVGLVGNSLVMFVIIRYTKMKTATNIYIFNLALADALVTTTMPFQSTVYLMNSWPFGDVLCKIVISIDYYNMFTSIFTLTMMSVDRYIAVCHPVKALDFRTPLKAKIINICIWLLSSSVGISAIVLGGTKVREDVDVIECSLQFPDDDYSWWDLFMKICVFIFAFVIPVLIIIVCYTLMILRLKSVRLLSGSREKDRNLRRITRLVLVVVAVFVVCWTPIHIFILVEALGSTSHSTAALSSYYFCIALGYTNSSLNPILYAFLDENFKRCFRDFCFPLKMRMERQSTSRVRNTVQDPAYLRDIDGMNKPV
EXPERIMENTAL_PROTOCOL: Radioligand binding selectivity, Kappa Opioid
OBSERVABLE: Ki

| SMILES_ENTRY | OBSERVABLE | RESULT_VALUE |
| --- | --- | --- |
| Cc1nn(-c2ncccc2Cn2cccn2)cc1CN1CCC2(CC1)OCC(F)(F)c1cc(Cl)sc12.O=C(O)C(O)C(O)C(=O)O | Ki | > 430 nM |
| O=C(O)C(O)C(O)C(=O)O.OCc1nn(-c2ncccc2F)cc1CN1CCC2(CC1)OCC(F)(F)c1cc(Cl)sc12 | Ki | > 430 nM |
